Below, each of the sequences is paired with its reported self-splicing fitness (ln) value.
- Protocol Details: self-splicing fitness, log relative to wild type (ln ratio); higher = more splicing; Tetrahymena group I intron in knt gene, E. coli kanamycin selection, DiMSum; sequences stand for … in CUCUCU…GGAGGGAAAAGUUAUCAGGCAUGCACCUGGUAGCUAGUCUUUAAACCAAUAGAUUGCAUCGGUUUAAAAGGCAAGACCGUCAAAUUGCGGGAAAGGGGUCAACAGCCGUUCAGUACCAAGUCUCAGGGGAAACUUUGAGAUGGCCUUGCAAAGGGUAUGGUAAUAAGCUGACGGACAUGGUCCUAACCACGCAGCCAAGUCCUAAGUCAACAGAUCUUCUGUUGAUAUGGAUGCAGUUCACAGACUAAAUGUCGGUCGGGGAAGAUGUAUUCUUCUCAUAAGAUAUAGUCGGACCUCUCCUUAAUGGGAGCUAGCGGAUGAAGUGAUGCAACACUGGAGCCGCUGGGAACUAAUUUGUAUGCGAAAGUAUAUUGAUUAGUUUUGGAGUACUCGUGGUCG;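 further: selection with 25 µg/mL kanamycin versus none on LB agar overnight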
- Applied Conditions: 30 °C

- Macromolecule Sequence: "GGCAAGCAAUAUUACGACAC"
  self-splicing fitness (ln): -0.649
- Macromolecule Sequence: "GUAGAGCAAUAUUACGGCUG"
  self-splicing fitness (ln): -1.04
- Macromolecule Sequence: "UGCCAGCAAUAUUACGUGAU"
  self-splicing fitness (ln): -2.59

----------
- Protocol Details: self-splicing fitness, log relative to wild type (ln ratio); higher = more splicing; Tetrahymena group I intron in knt gene, E. coli kanamycin selection, DiMSum; sequences stand for … in CUCUCU…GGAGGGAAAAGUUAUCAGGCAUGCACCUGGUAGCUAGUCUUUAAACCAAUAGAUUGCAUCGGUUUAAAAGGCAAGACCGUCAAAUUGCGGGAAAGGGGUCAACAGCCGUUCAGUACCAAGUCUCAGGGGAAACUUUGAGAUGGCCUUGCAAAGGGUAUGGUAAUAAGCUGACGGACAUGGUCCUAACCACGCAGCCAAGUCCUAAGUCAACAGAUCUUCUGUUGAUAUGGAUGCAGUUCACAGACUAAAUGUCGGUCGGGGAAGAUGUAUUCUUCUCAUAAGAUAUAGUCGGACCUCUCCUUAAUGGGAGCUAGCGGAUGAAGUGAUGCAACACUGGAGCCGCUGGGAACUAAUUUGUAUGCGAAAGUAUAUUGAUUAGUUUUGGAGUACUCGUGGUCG
- Applied Conditions: 37 °C
self-splicing fitness (ln) below -1 gives False; self-splicing fitness (ln) at or above it gives True.

- Macromolecule Sequence: "UGCUAGCAAUAUUACGUCCU"
  Category: "True"
- Macromolecule Sequence: "ACCCAGCAAUAUUACGCUUU"
  Category: "True"
- Macromolecule Sequence: "CAACAGCAAUAUUACGGCGC"
  Category: "False"
- Macromolecule Sequence: "GGUGAGCAAUAUUACGGUUC"
  Category: "True"
- Macromolecule Sequence: "GAUGAGCAAUAUUACGCCCG"
  Category: "False"
- Macromolecule Sequence: "UAUGAGCAAUAUUACGUAGA"
  Category: "False"
- Macromolecule Sequence: "GCCCAGCAAUAUUACGCGAU"
  Category: "True"
- Macromolecule Sequence: "AUGCAGCAAUAUUACGGAUU"
  Category: "False"
- Macromolecule Sequence: "CUGCAGCAAUAUUACGGUUC"
  Category: "False"
- Macromolecule Sequence: "AUAGAGCAAUAUUACGAUCG"
  Category: "False"
- Macromolecule Sequence: "AACGAGCAAUAUUACGCUUU"
  Category: "False"
- Macromolecule Sequence: "GCGAAGCAAUAUUACGAGUA"
  Category: "False"
- Macromolecule Sequence: "CCGCAGCAAUAUUACGACCA"
  Category: "False"
- Macromolecule Sequence: "ACCUAGCAAUAUUACGGCUA"
  Category: "False"
- Macromolecule Sequence: "GUGGAGCAAUAUUACGGAAU"
  Category: "False"
- Macromolecule Sequence: "UGAAAGCAAUAUUACGGAAG"
  Category: "False"
- Macromolecule Sequence: "UUGUAGCAAUAUUACGAGCA"
  Category: "True"
- Macromolecule Sequence: "CAAGAGCAAUAUUACGUCGG"
  Category: "False"
- Macromolecule Sequence: "AUCUAGCAAUAUUACGGUAU"
  Category: "False"
- Macromolecule Sequence: "CAUCAGCAAUAUUACGGAAG"
  Category: "True"
- Macromolecule Sequence: "CGCUAGCAAUAUUACGUGAC"
  Category: "False"
- Macromolecule Sequence: "UAGUAGCAAUAUUACGUAAG"
  Category: "False"
- Macromolecule Sequence: "CCACAGCAAUAUUACGUUCA"
  Category: "False"
- Macromolecule Sequence: "GUUUAGCAAUAUUACGACAU"
  Category: "True"
- Macromolecule Sequence: "UGCCAGCAAUAUUACGUAAC"
  Category: "False"
- Macromolecule Sequence: "GCCCAGCAAUAUUACGCAUA"
  Category: "True"
- Macromolecule Sequence: "UCCGAGCAAUAUUACGUGCU"
  Category: "False"

Origin of measurements: the supplement of paper PMC7877785
